SYSTEM_TESTED: ETS1 (UniProt P14921)
Sequence: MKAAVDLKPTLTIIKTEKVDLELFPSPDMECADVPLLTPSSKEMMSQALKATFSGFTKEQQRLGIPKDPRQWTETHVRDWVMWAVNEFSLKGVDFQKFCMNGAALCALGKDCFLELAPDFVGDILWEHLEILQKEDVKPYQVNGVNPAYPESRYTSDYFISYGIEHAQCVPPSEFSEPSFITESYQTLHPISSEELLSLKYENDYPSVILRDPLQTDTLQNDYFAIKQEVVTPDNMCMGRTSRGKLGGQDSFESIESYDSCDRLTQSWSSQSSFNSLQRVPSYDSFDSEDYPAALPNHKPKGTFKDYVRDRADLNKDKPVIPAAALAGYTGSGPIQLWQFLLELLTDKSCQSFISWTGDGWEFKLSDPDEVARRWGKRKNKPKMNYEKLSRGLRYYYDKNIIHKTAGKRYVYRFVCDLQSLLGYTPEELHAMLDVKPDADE
TEST_METHOD_NOTES: ETS1 binding intensity (PBM fluorescence) in presence of RUNX1, normalised to ETS1-only experiment (arbitrary fluorescence units); higher = stronger binding
CONDITION_CONTEXT: ETS1 concentration 1 nM; RUNX1 concentration 25 nM
ENDPOINT_NAME: ETS1 binding intensity
Answers are plain numbers.

// solved cases for ETS1 binding intensity follow
                          item_sequence          system_tested           endpoint_name  recorded_number
0  TCGCCCGCCGCTTCCTGTCGCGGCGCCGCAGAGGCC  ETS1 (UniProt P14921)  ETS1 binding intensity             1890
1  AAATATAGTGCTAAAGGAAGTGGTTTTCATGCAACT  ETS1 (UniProt P14921)  ETS1 binding intensity             4140

Let us examine a further case.
Indicate its recorded ETS1 binding intensity; the sequence in question is TGTTTTCGCTCTTCCTGGCCTTGCGGGCAGCCAGGA
783

----------
SYSTEM_TESTED: ETS1 (UniProt P14921)
Sequence: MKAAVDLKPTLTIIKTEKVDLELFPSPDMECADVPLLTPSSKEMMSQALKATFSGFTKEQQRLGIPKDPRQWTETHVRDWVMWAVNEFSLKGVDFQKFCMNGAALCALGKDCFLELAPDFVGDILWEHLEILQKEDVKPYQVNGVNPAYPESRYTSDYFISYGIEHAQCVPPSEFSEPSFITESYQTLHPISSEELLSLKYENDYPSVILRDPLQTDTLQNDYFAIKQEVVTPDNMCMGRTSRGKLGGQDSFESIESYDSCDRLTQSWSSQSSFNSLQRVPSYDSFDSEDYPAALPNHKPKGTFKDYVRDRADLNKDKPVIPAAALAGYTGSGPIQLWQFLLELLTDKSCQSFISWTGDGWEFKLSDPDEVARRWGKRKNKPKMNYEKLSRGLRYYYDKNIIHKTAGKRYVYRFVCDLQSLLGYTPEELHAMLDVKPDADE
TEST_METHOD_NOTES: TF binding intensity (PBM fluorescence), negative control probe (arbitrary fluorescence units); higher = stronger binding
ENDPOINT_NAME: TF binding intensity
Give bare numbers.

// solved cases for TF binding intensity follow
>>> print(df.to_string())
                              item_sequence          system_tested         endpoint_name  recorded_number
0  TTAACCTCTAGAAAAAGTAAATATTCAGCAATAGGA (protein concentration 10 nM)  ETS1 (UniProt P14921)  TF binding intensity              103
1  TTGTTACACTCCACGCTTTAGCTATTTGTTGCTACT (protein concentration 10 nM)  ETS1 (UniProt P14921)  TF binding intensity              120
2  TCTTGTATTTTCCTAAAGATTTGTGTGCTGTTTCTC (protein concentration 10 nM)  ETS1 (UniProt P14921)  TF binding intensity              100
3  CATAGTTGCACCTGGTCTACTTTGCTGTCAATTTGT (protein concentration 10 nM)  ETS1 (UniProt P14921)  TF binding intensity              126
4  AGAGGCATGAAAACAAATGAGACTAGGATGAGTTGG (protein concentration 10 nM)  ETS1 (UniProt P14921)  TF binding intensity              131
5  ATAGTACAAGCACTAGTCAAAGCTAGAGGTCACTCT (protein concentration 10 nM)  ETS1 (UniProt P14921)  TF binding intensity              111

Please state, for each entry, its recorded TF binding intensity.
1. TTTCAGAGGGAAAAGAATTTTGCCGTTCGCGTTCGA (protein concentration 10 nM)
2. AGTTTTTTGTTTTGAGCCGCAGTCTCGCTCTGTCGC (protein concentration 1 nM)
3. CCTGCCTCATTTGCTCACGGGCTCCCTCCCTCAAGG (protein concentration 10 nM)
4. GGGCCGCGCCGAGGGGACCACGGGACGCCCTCCTTC (protein concentration 10 nM)
5. CCGCACGCGGGCGCGGGCCAGCTGCAGATGGAGAAC (protein concentration 10 nM)

1: 113; 2: 351; 3: 113; 4: 102; 5: 136
